Provenance of the data: PubChem BioAssay

Documented composite z-score across a set of compounds
measured.on: Torsin-1A (Homo sapiens)
assay.summary: torsin A binders from cell lysate, primary screen, small-molecule microarray, wild-type, 635/667 nm (AID 1149)
settings: COS7 hTOR1A-WT lysate, 635 nm fluorescence, higher = more signal
Field format: numeric only.

Need composite z-score, item CO[C@H]1COC(=O)CC=C[C@H](C)[C@@H](OC)COC(=O)[C@@H](C)COC(=O)CC=C[C@@H]1C
2.79

More entries:
Need composite z-score, item COC(=O)[C@H](C)NC(=O)CCC1CC(OC(=O)NCc2ccc3c(c2)OCO3)CC2(CCCC(COC(=O)NCC3CCCCC3)O2)O1 (some centres undefined)
0.174

And Cc1cc2c(nc1C)CCCCN2CC(C)ON=C1[C@H]2CCn3c(=O)n(-c4ccccc4)c(=O)n3[C@H]2[C@H](O)[C@@H]2O[C@H]12 (some centres undefined) ?
-0.0459

And CO[C@@H]1COC(=O)[C@@H](C)COC(=O)[C@@H](C)NC(=O)CC=C[C@@H]1C ?
1.65
